Listed below: pIC50 values for each entry.
tested on: 699152-130-R-J1-PDC complex spheroid viability; assay: Anticancer human tumor 699152-130-R-J1-PDC patient-derived pancreatic carcinoma cell line growth inhibition [POLQ]; conditions: curve of first compound; second compound 1 µM
pIC50: −log10 of the molar value.
endpointName: pIC50

{"compound": "CCc1cc2c(N3CCc4c(cc(Cn5ccnc5)cc4-c4cn(C)nc4C(F)(F)F)C3=O)ccnc2c(OC)n1 + Cc1cccc(N(C)C(=O)C2C(O)CCN2c2nc(C)cc(C(F)(F)F)c2C#N)c1", "comparativeSign": "<", "experimentalResult": 5.00}
{"compound": "Nc1ccn(C2OC(CO)C(O)C2(F)F)c(=O)n1 (stereo not given) + Cc1cccc(N(C)C(=O)C2C(O)CCN2c2nc(C)cc(C(F)(F)F)c2C#N)c1", "comparativeSign": "=", "experimentalResult": 5.91}
{"compound": "CC(=O)O[C@H]1C(=O)[C@@]2(C)[C@H]([C@H](OC(=O)c3ccccc3)[C@]3(O)C[C@H](OC(=O)[C@H](O)[C@@H](NC(=O)c4ccccc4)c4ccccc4)C(C)=C1C3(C)C)[C@]1(OC(C)=O)CO[C@@H]1C[C@@H]2O + Nc1ccc(C#CCN(C(=O)Cc2ncc(C(F)(F)F)cc2C(F)(F)F)c2ccc(F)cc2)nn1", "comparativeSign": "<", "experimentalResult": 5.52}
{"compound": "CCc1c2c(nc3ccc(O)cc13)-c1cc3c(c(=O)n1C2)COC(=O)[C@]3(O)CC + Cc1cccc(N(C)C(=O)C2C(O)CCN2c2nc(C)cc(C(F)(F)F)c2C#N)c1", "comparativeSign": "=", "experimentalResult": 7.33}
{"compound": "COc1cc2cc(C(=O)CCC(=O)O)sc2cc1OC + Nc1ccc(C#CCN(C(=O)Cc2ncc(C(F)(F)F)cc2C(F)(F)F)c2ccc(F)cc2)nn1", "comparativeSign": "<", "experimentalResult": 5.00}

* * *

Listed below: viability, T/C values for each entry.
system: 699152-130-R-J1-PDC complex spheroid viability; test: Anticancer human tumor 699152-130-R-J1-PDC cell line growth inhibition [POLQ]; conditions: second compound 10 µM; first compound 1 µM; stronger effect = lower value;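 note: spheroids exposed to agents for 7 days before viability reading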;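 for viability, T/C: percent of DMSO vehicle control viability so 100% = vehicle and 0% = no viable signal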

{"compound": "O=c1[nH]cc(F)c(=O)[nH]1 + COC1C(OC(N)=O)C(O)C(Oc2ccc3c(O)c(NC(=O)c4ccc(O)c(CC=C(C)C)c4)c(=O)oc3c2C)OC1(C)C", "assayTarget": "699152-130-R-J1-PDC complex spheroid viability", "viability, T/C (%)": 95.9}
{"compound": "Nc1ccn(C2OC(CO)C(O)C2(F)F)c(=O)n1 (stereo unspecified) + COC1C(OC(N)=O)C(O)C(Oc2ccc3c(O)c(NC(=O)c4ccc(O)c(CC=C(C)C)c4)c(=O)oc3c2C)OC1(C)C", "assayTarget": "699152-130-R-J1-PDC complex spheroid viability", "viability, T/C (%)": 51.3}
{"compound": "CC1COCCN1c1cc(C2(O)CC3CCC(C2)O3)c2cnn(-c3ccn[nH]3)c2n1 (stereo unspecified) + COC1C(OC(N)=O)C(O)C(Oc2ccc3c(O)c(NC(=O)c4ccc(O)c(CC=C(C)C)c4)c(=O)oc3c2C)OC1(C)C", "assayTarget": "699152-130-R-J1-PDC complex spheroid viability", "viability, T/C (%)": 55.3}
{"compound": "Nc1ccn(C2OC(CO)C(O)C2(F)F)c(=O)n1 (stereo unspecified) + Nc1ccc(C#CCN(C(=O)Cc2ncc(C(F)(F)F)cc2C(F)(F)F)c2ccc(F)cc2)nn1", "assayTarget": "699152-130-R-J1-PDC complex spheroid viability", "viability, T/C (%)": 52.8}
{"compound": "C#Cc1c(F)ccc2cc(O)cc(-c3ncc4c(N5CC6CCC(C5)N6)nc(OCC56CCCN5CC(F)C6)nc4c3F)c12 (stereo unspecified) + Cc1cccc(N(C)C(=O)C2C(O)CCN2c2nc(C)cc(C(F)(F)F)c2C#N)c1", "assayTarget": "699152-130-R-J1-PDC complex spheroid viability", "viability, T/C (%)": 14.3}
{"compound": "CC(C)n1c(=O)n(C)c2cnc3cc(F)c(-c4ccc(OCCCN5CCCCC5)nc4)cc3c21 + Cc1cccc(N(C)C(=O)C2C(O)CCN2c2nc(C)cc(C(F)(F)F)c2C#N)c1", "assayTarget": "699152-130-R-J1-PDC complex spheroid viability", "viability, T/C (%)": 111}
{"compound": "CCc1cc2c(N3CCc4c(cc(Cn5ccnc5)cc4-c4cn(C)nc4C(F)(F)F)C3=O)ccnc2c(OC)n1 + COC1C(OC(N)=O)C(O)C(Oc2ccc3c(O)c(NC(=O)c4ccc(O)c(CC=C(C)C)c4)c(=O)oc3c2C)OC1(C)C", "assayTarget": "699152-130-R-J1-PDC complex spheroid viability", "viability, T/C (%)": 101}
{"compound": "C=CCn1c(=O)c2cnc(Nc3ccc(N4CCN(C)CC4)cc3)nc2n1-c1cccc(C(C)(C)O)n1 + Nc1ccc(C#CCN(C(=O)Cc2ncc(C(F)(F)F)cc2C(F)(F)F)c2ccc(F)cc2)nn1", "assayTarget": "699152-130-R-J1-PDC complex spheroid viability", "viability, T/C (%)": 81.7}
{"compound": "C=CC(=O)N1CCN(c2nc(=O)n(-c3c(C)ccnc3C(C)C)c3nc(-c4c(O)cccc4F)c(F)cc23)C(C)C1 (stereo unspecified) + Cc1cccc(N(C)C(=O)C2C(O)CCN2c2nc(C)cc(C(F)(F)F)c2C#N)c1", "assayTarget": "699152-130-R-J1-PDC complex spheroid viability", "viability, T/C (%)": 109}
{"compound": "CC1COCCN1c1cc(-c2ccnn2C)c2ccnc(-c3ccn[nH]3)c2n1 (stereo unspecified) + Nc1ccc(C#CCN(C(=O)Cc2ncc(C(F)(F)F)cc2C(F)(F)F)c2ccc(F)cc2)nn1", "assayTarget": "699152-130-R-J1-PDC complex spheroid viability", "viability, T/C (%)": 58}
{"compound": "COc1cccc2c1C(=O)c1c(O)c3c(c(O)c1C2=O)CC(O)(C(=O)CO)CC3OC1CC(N)C(O)C(C)O1 (stereo unspecified) + Nc1ccc(C#CCN(C(=O)Cc2ncc(C(F)(F)F)cc2C(F)(F)F)c2ccc(F)cc2)nn1", "assayTarget": "699152-130-R-J1-PDC complex spheroid viability", "viability, T/C (%)": 31.9}

* * *

Listed below: viability, T/C values for each entry.
test system: 699152-130-R-J1-PDC complex spheroid viability; experiment: Anticancer human tumor 699152-130-R-J1-PDC cell line growth inhibition [POLQ]; settings: second compound 0.1 µM; first compound 1 µM; stronger effect = lower value;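 note: spheroids exposed to agents for 7 days before viability reading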;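 for viability, T/C: percent of DMSO vehicle control viability so 100% = vehicle and 0% = no viable signal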

{"molecule": "Nc1ccn(C2OC(CO)C(O)C2(F)F)c(=O)n1 (stereo not drawn) + COC1C(OC(N)=O)C(O)C(Oc2ccc3c(O)c(NC(=O)c4ccc(O)c(CC=C(C)C)c4)c(=O)oc3c2C)OC1(C)C", "viability, T/C / %": 44.8}
{"molecule": "COc1cc(C2c3cc4c(cc3C(OC3OC5COC(C)OC5C(O)C3O)C3COC(=O)C23)OCO4)cc(OC)c1O (stereo not drawn) + COC1C(OC(N)=O)C(O)C(Oc2ccc3c(O)c(NC(=O)c4ccc(O)c(CC=C(C)C)c4)c(=O)oc3c2C)OC1(C)C", "viability, T/C / %": 61.1}
{"molecule": "C#Cc1c(F)ccc2cc(O)cc(-c3ncc4c(N5CC6CCC(C5)N6)nc(OCC56CCCN5CC(F)C6)nc4c3F)c12 (stereo not drawn) + Nc1ccc(C#CCN(C(=O)Cc2ncc(C(F)(F)F)cc2C(F)(F)F)c2ccc(F)cc2)nn1", "viability, T/C / %": 13.7}

* * *

test system: 699152-130-R-J1-PDC complex spheroid viability; experiment: Anticancer human tumor 699152-130-R-J1-PDC cell line growth inhibition [POLQ]; conditions: second compound 1 µM; first compound 0.00316 µM; stronger effect = lower value;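 note: spheroids exposed to agents for 7 days before viability reading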;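 for viability, T/C: percent of DMSO vehicle control viability so 100% = vehicle and 0% = no viable signal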

{"compound": "CC[C@@]1(O)C(=O)OCc2c1cc1n(c2=O)Cc2cc3c(CN(C)C)c(O)ccc3nc2-1 + Nc1ccc(C#CCN(C(=O)Cc2ncc(C(F)(F)F)cc2C(F)(F)F)c2ccc(F)cc2)nn1", "viability, T/C [%]": 109}
{"compound": "COc1cccc(OCCCN)c1-c1cc(Nc2cnc(C#N)cn2)n[nH]1 + COC1C(OC(N)=O)C(O)C(Oc2ccc3c(O)c(NC(=O)c4ccc(O)c(CC=C(C)C)c4)c(=O)oc3c2C)OC1(C)C", "viability, T/C [%]": 93.7}
{"compound": "CCc1c2c(nc3ccc(O)cc13)-c1cc3c(c(=O)n1C2)COC(=O)[C@]3(O)CC + COC1C(OC(N)=O)C(O)C(Oc2ccc3c(O)c(NC(=O)c4ccc(O)c(CC=C(C)C)c4)c(=O)oc3c2C)OC1(C)C", "viability, T/C [%]": 66.9}
{"compound": "Cn1ncnc1[C@H]1c2n[nH]c(=O)c3cc(F)cc(c23)N[C@@H]1c1ccc(F)cc1 + Cc1cccc(N(C)C(=O)C2C(O)CCN2c2nc(C)cc(C(F)(F)F)c2C#N)c1", "viability, T/C [%]": 95}
{"compound": "COc1cccc(OCCCN)c1-c1cc(Nc2cnc(C#N)cn2)n[nH]1 + Nc1ccc(C#CCN(C(=O)Cc2ncc(C(F)(F)F)cc2C(F)(F)F)c2ccc(F)cc2)nn1", "viability, T/C [%]": 111}
{"compound": "CCc1c2c(nc3ccc(O)cc13)-c1cc3c(c(=O)n1C2)COC(=O)[C@]3(O)CC + Nc1ccc(C#CCN(C(=O)Cc2ncc(C(F)(F)F)cc2C(F)(F)F)c2ccc(F)cc2)nn1", "viability, T/C [%]": 74.7}
{"compound": "Cn1ncnc1[C@H]1c2n[nH]c(=O)c3cc(F)cc(c23)N[C@@H]1c1ccc(F)cc1 + Nc1ccc(C#CCN(C(=O)Cc2ncc(C(F)(F)F)cc2C(F)(F)F)c2ccc(F)cc2)nn1", "viability, T/C [%]": 89.4}
{"compound": "C=CCn1c(=O)c2cnc(Nc3ccc(N4CCN(C)CC4)cc3)nc2n1-c1cccc(C(C)(C)O)n1 + Nc1ccc(C#CCN(C(=O)Cc2ncc(C(F)(F)F)cc2C(F)(F)F)c2ccc(F)cc2)nn1", "viability, T/C [%]": 97.9}
{"compound": "C=CCn1c(=O)c2cnc(Nc3ccc(N4CCN(C)CC4)cc3)nc2n1-c1cccc(C(C)(C)O)n1 + Cc1cccc(N(C)C(=O)C2C(O)CCN2c2nc(C)cc(C(F)(F)F)c2C#N)c1", "viability, T/C [%]": 96.5}
{"compound": "CC[C@@]1(O)C(=O)OCc2c1cc1n(c2=O)Cc2cc3c(CN(C)C)c(O)ccc3nc2-1 + Cc1cccc(N(C)C(=O)C2C(O)CCN2c2nc(C)cc(C(F)(F)F)c2C#N)c1", "viability, T/C [%]": 111}
